TESTED_TARGET: K95A CFTR (Homo sapiens, UniProt P13569, K95A)
Sequence (P13569 whole entry K95A): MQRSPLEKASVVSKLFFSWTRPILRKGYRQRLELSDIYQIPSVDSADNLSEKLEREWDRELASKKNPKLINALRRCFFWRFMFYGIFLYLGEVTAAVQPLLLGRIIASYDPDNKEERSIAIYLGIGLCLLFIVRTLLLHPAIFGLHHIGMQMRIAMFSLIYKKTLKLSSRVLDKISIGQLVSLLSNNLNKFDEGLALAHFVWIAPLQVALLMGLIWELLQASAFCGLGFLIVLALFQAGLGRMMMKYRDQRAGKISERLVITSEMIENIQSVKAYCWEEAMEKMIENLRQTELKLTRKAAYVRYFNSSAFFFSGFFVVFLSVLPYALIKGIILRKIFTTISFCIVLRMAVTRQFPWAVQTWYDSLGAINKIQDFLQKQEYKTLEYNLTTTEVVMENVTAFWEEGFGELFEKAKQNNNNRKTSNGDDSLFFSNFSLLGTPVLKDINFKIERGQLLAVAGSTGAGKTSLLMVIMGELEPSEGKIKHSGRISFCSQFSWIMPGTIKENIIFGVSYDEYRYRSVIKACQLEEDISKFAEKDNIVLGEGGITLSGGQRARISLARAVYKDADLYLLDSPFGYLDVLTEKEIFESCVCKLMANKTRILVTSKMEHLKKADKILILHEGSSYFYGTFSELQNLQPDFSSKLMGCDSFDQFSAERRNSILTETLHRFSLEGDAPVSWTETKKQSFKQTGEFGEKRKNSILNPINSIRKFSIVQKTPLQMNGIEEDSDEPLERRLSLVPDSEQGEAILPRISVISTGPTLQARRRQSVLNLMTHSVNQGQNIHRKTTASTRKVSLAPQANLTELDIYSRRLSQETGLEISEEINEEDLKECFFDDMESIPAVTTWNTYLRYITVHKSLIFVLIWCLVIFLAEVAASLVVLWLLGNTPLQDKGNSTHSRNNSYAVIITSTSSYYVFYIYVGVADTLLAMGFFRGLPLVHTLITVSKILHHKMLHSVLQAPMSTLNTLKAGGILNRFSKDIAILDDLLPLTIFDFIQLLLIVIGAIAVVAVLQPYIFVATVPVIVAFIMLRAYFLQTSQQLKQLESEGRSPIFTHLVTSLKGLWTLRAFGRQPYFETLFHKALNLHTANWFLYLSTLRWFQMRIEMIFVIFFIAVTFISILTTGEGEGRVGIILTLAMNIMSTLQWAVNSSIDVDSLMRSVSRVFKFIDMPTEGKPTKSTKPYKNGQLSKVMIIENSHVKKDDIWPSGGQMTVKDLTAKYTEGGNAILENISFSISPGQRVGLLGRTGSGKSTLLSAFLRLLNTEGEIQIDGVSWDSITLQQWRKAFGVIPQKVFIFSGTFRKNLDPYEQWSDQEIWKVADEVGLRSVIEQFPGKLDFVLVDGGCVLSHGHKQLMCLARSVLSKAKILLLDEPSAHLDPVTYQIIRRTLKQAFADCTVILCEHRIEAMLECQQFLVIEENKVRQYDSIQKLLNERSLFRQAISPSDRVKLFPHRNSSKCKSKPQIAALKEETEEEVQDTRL
TEST_METHOD_NOTES: Inside-out excised patch titration, K95A CFTR
EXPERIMENTAL_SETUP: inside-out patches, 3 mM ATP, Hill coefficient fixed to 1
ENDPOINT_LABEL: IC50 (µM)

# SMI, ENDPOINT_LABEL, VALUE_MEASURED
measured = [
    ("O=C(O)c1ccc(/C=C2\\SC(=S)N(c3cccc(C(F)(F)F)c3)C2=O)cc1", "IC50", 3.5),
]

Value source: paper PMC10927578
